Values compiled from patent US11746354B2.

Test system: maize (Zea mays) r1-colored1 gene
protocol.description: HDR editing of an endogenous gene in maize protoplasts (RNP + dsDNA donor template, MiSeq sequencing)
Assay type: cell-based
recorded.conditions: normoxic conditions; 5 μM compound, 0.1% DMSO; B104 maize protoplasts; 48 hours at 26 degrees Celsius in the dark; average of triplicate samples
Cut-off 3 on Normoxia Avg. (HDR): below means Y, at or above means N.

{"compound": "CN(C)NC(=O)CCC(=O)O [Daminozide]", "discrete.label": "N"}
{"compound": "Cc1ccc(C(=O)N(CCCN)[C@@H](c2oc3cc(Cl)ccc3c(=O)c2Cc2ccccc2)C(C)C)cc1.Cl [SB 743921 Hydrochloride]", "discrete.label": "N"}
{"compound": "CC(=O)NCCNc1cc(Cl)nn2c(-c3cccc(S(=O)(=O)N(C)C)c3)c(C)nc12 [MI 14]", "discrete.label": "Y"}
{"compound": "O=S(=O)(NCCCCCCc1ccccc1)c1cccc2c(Cl)cccc12 [SC-9]", "discrete.label": "Y"}
{"compound": "c1ccc(-c2ccc(CNc3nc(-c4ccccn4)nnc3-c3ccccc3)cc2)cc1 [ML 228]", "discrete.label": "Y"}
{"compound": "Nc1nccc(-c2ccc3noc(-c4ccc(Cl)cc4)c3c2)n1 [PIM-1 Inhibitor 2]", "discrete.label": "Y"}
{"compound": "CC(=O)[C@H]1CC[C@H]2[C@@H]3CC[C@@H]4C[C@H](O)CC[C@]4(C)[C@H]3CC[C@]12C [Pregnanolone]", "discrete.label": "N"}

---

Test system: maize (Zea mays) r1-colored1 gene
protocol.description: HDR editing of an endogenous gene in maize protoplasts (RNP + dsDNA donor template, MiSeq sequencing)
Format: cell-based
Set-up: unit not given here
recorded.conditions: normoxic conditions; 5 μM compound, 0.1% DMSO; B104 maize protoplasts; 48 hours at 26 degrees Celsius in the dark; average of triplicate samples
Experimental: This example describes a second set of experiments which investigated the effects of the 81 small molecules previously identified in the “traffic light” screen (Example 1) on HDR efficiency in editing an endogenous gene, the maize (Zea mays) r1-colored1 gene with partial genomic sequence SEQ ID NO: 5. A ribonucleoprotein (RNP) was prepared with a guide RNA designed to edit the promoter located at positions 313-333 of SEQ ID NO:5. A donor template was provided as a dsDNA for HDR repair. […]
measured.parameter: Normoxia Avg. (HDR)

{"molecule": "CN(CCOc1ccc(CC2SC(=O)NC2=O)cc1)c1ccccn1 (stereo not shown)", "recorded.measurement": 3.20}
{"molecule": "Nc1nc(Cl)nc2c1ncn2[C@@H]1O[C@H](CO)[C@@H](O)[C@H]1O", "recorded.measurement": 2.45}
{"molecule": "CC(C)(C)c1ccc(S(=O)(=O)NCc2ccc(C(=O)Nc3cccnc3)cc2)cc1", "recorded.measurement": 0.40}
{"molecule": "O=C1N=C(NCc2cccs2)S/C1=C\\c1ccc2ncccc2c1", "recorded.measurement": 1.64}
{"molecule": "CSc1nc(-c2ccc(F)cc2)c(-c2ccnc(NC(C)c3ccccc3)c2)[nH]1 (stereo not shown)", "recorded.measurement": 1.47}
{"molecule": "Cc1oc(-c2ccccc2)nc1CCOc1ccc(CC2SC(=O)NC2=O)c2sccc12 (stereo not shown)", "recorded.measurement": 3.56}
{"molecule": "Cc1ccc(C(=O)N(CCCN)[C@@H](c2[nH]c3cc(Cl)ccc3c(=O)[n+]2Cc2ccccc2)C(C)C)cc1", "recorded.measurement": 3.36}
